assay_protocol: Selectivity index, ratio of IC50 for rhesus monkey LLC-MK2 cells to IC50 for trypomastigotes of Trypanosoma cruzi
Type: toxicity, cell-based
measurement_conditions: read-out: Selectivity Index
Rule: TRUE for selectivity ratio not less than 7, FALSE for anything less.

Exercise: Kindly determine if selectivity ratio recorded for COCCOC(=O)C1=C(C)NC(C)=C(C(=O)OC(C)C)C1c1cccc([N+](=O)[O-])c1 (stereo not drawn) [NIMODIPINE] is above or exactly 7.
Solution: FALSE

Exercise: Kindly determine if selectivity ratio recorded for COC(=O)C1=C(C)NC(C)=C(C(=O)OC(C)(C)CN(C)CCC(c2ccccc2)c2ccccc2)C1c1cccc([N+](=O)[O-])c1 (stereo not drawn) [LERCANIDIPINE] is above or exactly 7.
Solution: TRUE

Exercise: Kindly determine if selectivity ratio recorded for CC1=C(C(=O)OC(C)C)C(c2cccc([N+](=O)[O-])c2)C(C(=O)OC2CN(C(c3ccccc3)c3ccccc3)C2)=C(N)N1 (stereo not drawn) [AZELNIDIPINE] is above or exactly 7.
Solution: TRUE

Exercise: Kindly determine if selectivity ratio recorded for COCCOC(=O)C1=C(C)NC(C)=C(C(=O)OC/C=C/c2ccccc2)C1c1cccc([N+](=O)[O-])c1 (stereo not drawn) [CILNIDIPINE] is above or exactly 7.
Solution: TRUE

Exercise: Kindly determine if selectivity ratio recorded for COC(=O)C1=C(C)NC(C)=C(C(=O)OCCN(C)Cc2ccccc2)C1c1cccc([N+](=O)[O-])c1 (stereo not drawn) [NICARDIPINE] is above or exactly 7.
Solution: FALSE

Exercise: Kindly determine if selectivity ratio recorded for COC(=O)C1=C(C)NC(C)=C(C(=O)OC)C1c1ccccc1[N+](=O)[O-] [NIFEDIPINE] is above or exactly 7.
Solution: FALSE

Exercise: Kindly determine if selectivity ratio recorded for CCOC(=O)C1=C(COCCN)NC(C)=C(C(=O)OC)C1c1ccccc1Cl (stereo not drawn) [AMLODIPINE] is above or exactly 7.
Solution: TRUE

# input for lookup
Exercise: Kindly determine if selectivity ratio recorded for CCOC(=O)C1=C(C)NC(C)=C(C(=O)OC)C1c1cccc([N+](=O)[O-])c1 (stereo not drawn) [NITRENDIPINE] is above or exactly 7.
Solution: FALSE

====

System: Leishmania amazonensis
assay_protocol: Antileishmanial activity against promastigotes of Leishmania amazonensis WHO/BR/00/LT0016 after 18 hrs by MTT assay
Format: functional, organism-based
measurement_conditions: WHO/BR/00/LT0016, 18 h
Examples of compounds with documented log10 IC50 follow.
Note the log scale: values are log10 of IC50 expressed in µM.

Solved entries:
Exercise: Name the recorded log10 IC50 for CC1=C(C(=O)OC(C)C)C(c2cccc([N+](=O)[O-])c2)C(C(=O)OC2CN(C(c3ccccc3)c3ccccc3)C2)=C(N)N1 (centres undefined) .
Solution: 1.31

Exercise: Name the recorded log10 IC50 for COC(=O)C1=C(C)NC(C)=C(C(=O)OCCN(C)Cc2ccccc2)C1c1cccc([N+](=O)[O-])c1 (centres undefined) .
Solution: 1.42

Exercise: Name the recorded log10 IC50 for CCOC(=O)C1=C(COCCN)NC(C)=C(C(=O)OC)C1c1ccccc1Cl (centres undefined) .
Solution: 0.47

Exercise: Name the recorded log10 IC50 for COC(=O)C1=C(C)NC(C)=C(C(=O)OC)C1c1ccccc1[N+](=O)[O-] .
Solution: 2.07

Exercise: Name the recorded log10 IC50 for N=C(N)c1ccc(OCCCCCOc2ccc(C(=N)N)cc2)cc1 .
Solution: -0.31

Exercise: Name the recorded log10 IC50 for CCOC(=O)C1=C(C)NC(C)=C(C(=O)OC)C1c1cccc([N+](=O)[O-])c1 (centres undefined) .
Solution: 1.58

Exercise: Name the recorded log10 IC50 for COCCOC(=O)C1=C(C)NC(C)=C(C(=O)OC/C=C/c2ccccc2)C1c1cccc([N+](=O)[O-])c1 (centres undefined) .
Solution: 2.05

Exercise: Name the recorded log10 IC50 for COCCOC(=O)C1=C(C)NC(C)=C(C(=O)OC(C)C)C1c1cccc([N+](=O)[O-])c1 (centres undefined) .
Solution: 2.11

Kindly review the next compound as well.
Exercise: Name the recorded log10 IC50 for COC(=O)C1=C(C)NC(C)=C(C(=O)OC(C)(C)CN(C)CCC(c2ccccc2)c2ccccc2)C1c1cccc([N+](=O)[O-])c1 (centres undefined) .
Solution: 1.23

====

System: Trypanosoma cruzi
assay_protocol: Antitrypanosomal activity against trypomastigotes of Trypanosoma cruzi infected in rhesus monkey LLC-MK2 cells after 48 hrs by MTT assay
Format: functional, organism-based
measurement_conditions: LLC-MK2, 48 h
measured_property: log10(IC50) (log10 of the value in µM)
Note the log scale: values are log10 of IC50 expressed in µM.

Solved entries:
Exercise: Name the recorded log10(IC50) for COC(=O)C1=C(C)NC(C)=C(C(=O)OCCN(C)Cc2ccccc2)C1c1cccc([N+](=O)[O-])c1 (centres undefined) .
Solution: 1.03

Exercise: Name the recorded log10(IC50) for COCCOC(=O)C1=C(C)NC(C)=C(C(=O)OC/C=C/c2ccccc2)C1c1cccc([N+](=O)[O-])c1 (centres undefined) .
Solution: 0.75

More entries:
Exercise: Name the recorded log10(IC50) for COC(=O)C1=C(C)NC(C)=C(C(=O)OC)C1c1ccccc1[N+](=O)[O-] .
Solution: 2.01

Exercise: Name the recorded log10(IC50) for CCOC(=O)C1=C(COCCN)NC(C)=C(C(=O)OC)C1c1ccccc1Cl (centres undefined) .
Solution: 0.91

Exercise: Name the recorded log10(IC50) for O=C(Cn1ccnc1[N+](=O)[O-])NCc1ccccc1 .
Solution: 2.24

Exercise: Name the recorded log10(IC50) for COCCOC(=O)C1=C(C)NC(C)=C(C(=O)OC(C)C)C1c1cccc([N+](=O)[O-])c1 (centres undefined) .
Solution: 1.51

====

assay_protocol: Cytotoxicity in BALB/c mouse erythrocytes assessed as hemolysis at 50 uM after 3 hrs
Type: cell-based
measurement_conditions: erythrocyte
measured_property: Activity

Solved entries:
Exercise: Name the recorded Activity for CCOC(=O)C1=C(COCCN)NC(C)=C(C(=O)OC)C1c1ccccc1Cl (stereo not given) .
Solution: Non-toxic

Exercise: Name the recorded Activity for N=C(N)c1ccc(OCCCCCOc2ccc(C(=N)N)cc2)cc1 .
Solution: Non-toxic

Exercise: Name the recorded Activity for CCOC(=O)C1=C(C)NC(C)=C(C(=O)OCC)C1c1ccccc1/C=C/C(=O)OC(C)(C)C .
Solution: Non-toxic

Exercise: Name the recorded Activity for COC(=O)C1=C(C)NC(C)=C(C(=O)OC)C1c1ccccc1[N+](=O)[O-] .
Solution: Non-toxic

Kindly review the next molecule as well.
Exercise: Name the recorded Activity for COCCOC(=O)C1=C(C)NC(C)=C(C(=O)OC/C=C/c2ccccc2)C1c1cccc([N+](=O)[O-])c1 (stereo not given) .
Solution: Non-toxic

====

assay_protocol: Selectivity index, ratio of IC50 for rhesus monkey LLC-MK2 cells to IC50 for amastigotes of Leishmania chagasi MHOM/BR/1972/LD
Format: toxicity, cell-based
measurement_conditions: read-out: Selectivity Index
Examples of molecules with documented selectivity ratio follow.
The response must contain the number and no unit.

Solved entries:
Exercise: Name the recorded selectivity ratio for CCOC(=O)C1=C(COCCN)NC(C)=C(C(=O)OC)C1c1ccccc1Cl (configuration not stated) [AMLODIPINE] .
Solution: 13.2

Exercise: Name the recorded selectivity ratio for COC(=O)C1=C(C)NC(C)=C(C(=O)OC(C)(C)CN(C)CCC(c2ccccc2)c2ccccc2)C1c1cccc([N+](=O)[O-])c1 (configuration not stated) [LERCANIDIPINE] .
Solution: 42

Exercise: Name the recorded selectivity ratio for COCCOC(=O)C1=C(C)NC(C)=C(C(=O)OC/C=C/c2ccccc2)C1c1cccc([N+](=O)[O-])c1 (configuration not stated) [CILNIDIPINE] .
Solution: 7.79

Exercise: Name the recorded selectivity ratio for CCOC(=O)C1=C(C)NC(C)=C(C(=O)OC)C1c1cccc([N+](=O)[O-])c1 (configuration not stated) [NITRENDIPINE] .
Solution: 3.14

Exercise: Name the recorded selectivity ratio for COC(=O)C1=C(C)NC(C)=C(C(=O)OCCN(C)Cc2ccccc2)C1c1cccc([N+](=O)[O-])c1 (configuration not stated) [NICARDIPINE] .
Solution: 3.25

More entries:
Exercise: Name the recorded selectivity ratio for COCCOC(=O)C1=C(C)NC(C)=C(C(=O)OC(C)C)C1c1cccc([N+](=O)[O-])c1 (configuration not stated) [NIMODIPINE] .
Solution: 4.45

Exercise: Name the recorded selectivity ratio for COC(=O)C1=C(C)NC(C)=C(C(=O)OC)C1c1ccccc1[N+](=O)[O-] [NIFEDIPINE] .
Solution: 4.21

====

Examples of compounds with documented log10 of IC50 follow.
Test system: Leishmania major
assay_protocol: Antileishmanial activity against promastigotes of Leishmania major MHOM/1L/80/Fredlin after 18 hrs by MTT assay
Format: functional, organism-based
Note the log scale: values are log10 of IC50 expressed in µM.

Solved entries:
Exercise: Name the recorded log10 of IC50 for COC(=O)C1=C(C)NC(C)=C(C(=O)OC(C)(C)CN(C)CCC(c2ccccc2)c2ccccc2)C1c1cccc([N+](=O)[O-])c1 (centres undefined) .
Solution: 1.06

Exercise: Name the recorded log10 of IC50 for COCCOC(=O)C1=C(C)NC(C)=C(C(=O)OC(C)C)C1c1cccc([N+](=O)[O-])c1 (centres undefined) .
Solution: 1.49

Exercise: Name the recorded log10 of IC50 for COC(=O)C1=C(C)NC(C)=C(C(=O)OCCN(C)Cc2ccccc2)C1c1cccc([N+](=O)[O-])c1 (centres undefined) .
Solution: 1.34

Exercise: Name the recorded log10 of IC50 for CC1=C(C(=O)OC(C)C)C(c2cccc([N+](=O)[O-])c2)C(C(=O)OC2CN(C(c3ccccc3)c3ccccc3)C2)=C(N)N1 (centres undefined) .
Solution: 1.23

Exercise: Name the recorded log10 of IC50 for N=C(N)c1ccc(OCCCCCOc2ccc(C(=N)N)cc2)cc1 .
Solution: -0.33

More entries:
Exercise: Name the recorded log10 of IC50 for COCCOC(=O)C1=C(C)NC(C)=C(C(=O)OC/C=C/c2ccccc2)C1c1cccc([N+](=O)[O-])c1 (centres undefined) .
Solution: 1.33

Exercise: Name the recorded log10 of IC50 for COC(=O)C1=C(C)NC(C)=C(C(=O)OC)C1c1ccccc1[N+](=O)[O-] .
Solution: 2.26

Exercise: Name the recorded log10 of IC50 for CCOC(=O)C1=C(C)NC(C)=C(C(=O)OC)C1c1cccc([N+](=O)[O-])c1 (centres undefined) .
Solution: 1.52

Exercise: Name the recorded log10 of IC50 for CCOC(=O)C1=C(COCCN)NC(C)=C(C(=O)OC)C1c1ccccc1Cl (centres undefined) .
Solution: 0.53
